# Tested on: Vas deferens
# TEST_SUMMARY: Inhibition of electric-field induced mouse vas deferens contraction
# Format: functional, tissue-based
MEASUREMENT_LABEL: pIC50
One number for each entry, as −log10 of the molar value.

Example entries begin here.
Data request: Any idea what pIC50 was measured for Cc1cc(O)cc(C)c1C[C@H](N)C(=O)N[C@H]1CSSC[C@@H](C(=O)NCC(=O)N[C@H](CCCNC(=N)N)C(=O)N[C@H](CCCNC(=N)N)C(=O)O)NC(=O)[C@H](Cc2ccc(Cl)cc2)NC(=O)[C@H](Cc2ccccc2)NC1=O ?
Data returned: 7.31

Data request: So what's the measured pIC50 for this one? N=C(N)NCCC[C@@H](NC(=O)[C@@H](CCCNC(=N)N)NC(=O)CNC(=O)[C@@H]1CSSC[C@H](NC(=O)[C@@H](N)Cc2ccc(O)cc2)C(=O)N[C@@H](Cc2ccccc2)C(=O)N[C@@H](Cc2ccc(Cl)cc2)C(=O)N1)C(=O)O
Data returned: 6.86

Data request: Which pIC50 is reported for this compound? N=C(N)NCCC[C@@H](NC(=O)[C@@H](CCCNC(=N)N)NC(=O)CNC(=O)[C@@H]1CSSC[C@H](NC(=O)[C@@H](N)Cc2ccc(O)cc2)C(=O)N[C@@H](Cc2ccccc2)C(=O)N[C@@H](Cc2ccccc2)C(=O)N1)C(=O)O
Data returned: 6.97

Data request: Bench note: what pIC50 did NC(=O)[C@H](Cc1ccccc1)NC(=O)[C@H](Cc1ccccc1)NC(=O)[C@@H]1CCCN1C(=O)[C@@H](N)Cc1ccc(O)cc1 [ENDOMORPHIN 2] show?
Data returned: 7.37

Could you now consider this next compound?
Data request: Give its pIC50 value. Item: N=C(N)NCCC[C@@H](NC(=O)[C@@H](CCCNC(=N)N)NC(=O)CNC(=O)[C@@H]1CSSC[C@H](NC(=O)[C@@H](N)Cc2ccc(O)cc2)C(=O)N[C@@H](Cc2c[nH]c3ccccc23)C(=O)N[C@@H](Cc2ccccc2)C(=O)N1)C(=O)O
Data returned: 7.01
